- system: UniProtKB P0DMS8
- experiment: Displacement of [3H]MRE 3008F20 binding at human A3 adenosine receptors expressed in CHO cells
- Design: expressed in transfected cells; host or cells: CHO cells
- conditions: Table 3: [3H]MRE 3008F20, human A3, CHO cells; hydrochloride salt
Counter-ions that a name gives are not always drawn.
reportedProperty: pKi
Numbers only, as −log10 of the molar value.

Req: Which pKi value is on record for CCNc1c2c(nc(N)n3nc(-c4ccco4)nc23)nn1C [Compound 53, hydrochloride salt] ?
Resp: 7.60

====

Provide the reported pKi of each item.
- system: human A2B adenosine receptors (Homo sapiens)
- Construct: expressed in transfected cells; host or cells: HEK-293 cells
- Sequence (P29275 1-332): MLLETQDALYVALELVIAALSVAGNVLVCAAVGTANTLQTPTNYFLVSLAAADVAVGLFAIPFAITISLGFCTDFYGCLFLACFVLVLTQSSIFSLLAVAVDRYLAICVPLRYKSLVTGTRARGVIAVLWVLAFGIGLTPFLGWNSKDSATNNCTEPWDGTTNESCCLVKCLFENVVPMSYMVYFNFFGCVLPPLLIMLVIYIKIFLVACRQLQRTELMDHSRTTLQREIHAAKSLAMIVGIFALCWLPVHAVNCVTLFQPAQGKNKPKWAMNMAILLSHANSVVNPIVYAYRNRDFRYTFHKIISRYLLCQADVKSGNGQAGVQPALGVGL
- experiment: Displacement of [3H]DPCPX binding at human A2B adenosine receptors expressed in HEK-293 cells
- conditions: Table 3: [3H]DPCPX, HEK-293 cells, hydrochloride salt
Structures can show the parent of a compound that is named as a salt.
Numbers only, as −log10 of the molar value.

compound | assayResult
CCNc1c2c(nc(N)n3nc(-c4ccco4)nc23)nn1C [Compound 53, hydrochloride salt] | 7.44

Please examine the following record next.
Req: So what's the measured pKi for this one? CCNc1c2c(nc(NC(=O)Nc3ccc(OC)cc3)n3nc(-c4ccco4)nc23)nn1C.Cl [Compound 55, hydrochloride salt]
Resp: 7.64

====

- system: human A2A adenosine receptors (Homo sapiens, UniProt P29274)
- Construct: expressed in transfected cells; host or cells: CHO cells
- Sequence (P29274 whole entry): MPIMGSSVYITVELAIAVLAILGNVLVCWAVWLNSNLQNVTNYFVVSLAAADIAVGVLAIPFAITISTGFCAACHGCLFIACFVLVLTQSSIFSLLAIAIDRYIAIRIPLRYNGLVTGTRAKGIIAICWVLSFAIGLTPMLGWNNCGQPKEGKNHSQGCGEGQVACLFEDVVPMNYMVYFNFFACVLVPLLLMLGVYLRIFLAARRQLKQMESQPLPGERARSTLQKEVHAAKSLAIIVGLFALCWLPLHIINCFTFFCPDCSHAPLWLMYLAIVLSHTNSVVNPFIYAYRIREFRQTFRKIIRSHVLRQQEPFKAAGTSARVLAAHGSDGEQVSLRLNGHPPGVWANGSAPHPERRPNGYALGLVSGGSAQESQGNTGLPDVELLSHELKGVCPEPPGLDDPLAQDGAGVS
- experiment: Displacement of [3H]SCH58261 binding at human A2A adenosine receptors expressed in CHO cells
- conditions: Table 3: [3H]SCH58261, human A2A, CHO cells; dihydrochloride salt
Counter-ions that a name gives are not always drawn.
reportedProperty: Ki (nM)
One number for each entry, in nM.

Req: Enter reported Ki observed with human A2A adenosine receptors (Homo sapiens, UniProt P29274) for CN1CCN(c2c3c(nc(N)n4nc(-c5ccco5)nc34)nn2C)CC1 [Compound 54, dihydrochloride salt]
Resp: 135

====

- system: human A2A adenosine receptors (Homo sapiens)
- Construct: expressed in transfected cells; host or cells: CHO cells
- experiment: Displacement of [3H]SCH58261 binding at human A2A adenosine receptors expressed in CHO cells
- conditions: Table 3: [3H]SCH58261, human A2A, CHO cells
reportedProperty: pKi
Numbers only, as −log10 of the molar value.

Some compounds with recorded pKi:
compound | pKi
COc1ccc(NC(=O)Nc2nc3nn(C)c(SC)c3c3nc(-c4ccco4)nn23)cc1 | 8.51
CSc1c2c(nc(NC(=O)Cc3ccc4c(c3)OCO4)n3nc(-c4ccco4)nc23)nn1C | 8.39
CCNc1c2c(nc(NC(=O)Cc3ccc4c(c3)OCO4)n3nc(-c4ccco4)nc23)nn1C | 7.21

For each of the compounds below, note its pKi.
1. COc1ccc(CC(=O)Nc2nc3nn(C)c(SC)c3c3nc(-c4ccco4)nn23)cc1
2. CCCSc1c2c(nc(N)n3nc(-c4ccco4)nc23)nn1C
3. CSc1c2c(nc(NC(=O)Cc3ccc(CC(C)C)cc3)n3nc(-c4ccco4)nc23)nn1C
4. CN1CCN(c2c3c(nc(N)n4nc(-c5ccco5)nc34)nn2C)CC1
5. CSc1c2c(nc(N)n3nc(-c4ccco4)nc23)nn1CCCc1ccccc1
6. CSc1c2c(nc(N)n3nc(-c4ccco4)nc23)nn1C

Resp:
[7.82, 8.68, 7.30, 6.81, 7.66, 8.92]

Req: Which pKi is listed for CCNc1c2c(nc(NC(=O)Nc3ccc(OC)cc3)n3nc(-c4ccco4)nc23)nn1C.Cl [Compound 55, hydrochloride salt] ?
Resp: 7.80

====

- system: human A2B adenosine receptors (Homo sapiens)
- Construct: expressed in transfected cells; host or cells: HEK-293 cells
- experiment: Displacement of [3H]DPCPX binding at human A2B adenosine receptors expressed in HEK-293 cells
- conditions: Table 3: [3H]DPCPX, HEK-293 cells
reportedProperty: Ki (nM)
Give bare numbers, in nM.

compound | Ki / nM
CSc1c2c(nc(NC(=O)Cc3ccc(CC(C)C)cc3)n3nc(-c4ccco4)nc23)nn1C [Compound 48] | 190
COc1ccc(CC(=O)Nc2nc3nn(C)c(SC)c3c3nc(-c4ccco4)nn23)cc1 [Compound 47] | 45

Could you now consider this next compound?
Req: Param item = CSc1c2c(nc(NC(=O)Cc3ccc4c(c3)OCO4)n3nc(-c4ccco4)nc23)nn1C [Compound 49] ; retrieve measured Ki.
Resp: 30

====

- system: human A3 adenosine receptors (Homo sapiens)
- experiment: Displacement of [125I]AB MECA binding at human A3 adenosine receptors expressed in HEK-293 cells
- Design: expressed in transfected cells
- conditions: Table 2, footnote a: [125I]AB MECA, human A3, HEK-293 cells
pKi: −log10 of the molar value.
reportedProperty: pKi

Req: Reported pKi, compound Nc1nc2c(cnn2CCc2ccccc2)c2nc(-c3ccco3)nn12 : ____
Resp: < 6.00

====

Can you tell me log10 of Ki for the items I'm about to list?
- system: human A1 adenosine receptors (Homo sapiens)
- Construct: expressed in transfected cells; host or cells: CHO cells
- Sequence (P30542 whole entry): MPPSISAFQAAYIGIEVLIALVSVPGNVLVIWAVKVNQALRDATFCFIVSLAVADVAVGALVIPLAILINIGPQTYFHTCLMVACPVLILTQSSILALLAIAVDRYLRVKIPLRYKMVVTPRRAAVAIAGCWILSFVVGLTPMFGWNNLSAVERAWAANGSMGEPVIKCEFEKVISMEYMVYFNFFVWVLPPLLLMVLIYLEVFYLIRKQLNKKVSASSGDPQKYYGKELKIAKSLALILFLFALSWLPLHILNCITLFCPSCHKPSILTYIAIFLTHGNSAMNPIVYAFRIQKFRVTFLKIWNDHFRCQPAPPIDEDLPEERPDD
- experiment: Displacement of [3H]DPCPX binding at human A1 adenosine receptors expressed in CHO cells
- conditions: Table 3: [3H]DPCPX, human A1, CHO cells
Heads up: the numbers are on a log10 scale; they represent Ki in nM.

compound | reportedProperty | assayResult
CCCSc1c2c(nc(N)n3nc(-c4ccco4)nc23)nn1C [Compound 42] | log10 of Ki | 0.95
CSc1c2c(nc(N)n3nc(-c4ccco4)nc23)nn1CCCc1ccccc1 [Compound 43] | log10 of Ki | 2.24

// each listed compound needs a value for log10 of Ki
1. CSc1c2c(nc(NC(=O)Cc3ccc(CC(C)C)cc3)n3nc(-c4ccco4)nc23)nn1C [Compound 48]
2. CCNc1c2c(nc(NC(=O)Cc3ccc4c(c3)OCO4)n3nc(-c4ccco4)nc23)nn1C [Compound 50]
3. CCNc1c2c(nc(NC(=O)Nc3ccc(OC)cc3)n3nc(-c4ccco4)nc23)nn1C [Compound 44]
4. COc1ccc(NC(=O)Nc2nc3nn(C)c(N4CCN(C)CC4)c3c3nc(-c4ccco4)nn23)cc1 [Compound 45]
5. CCNc1c2c(nc(N)n3nc(-c4ccco4)nc23)nn1C [Compound 38]

Resp:
2.89
2.13
2.18
2.50
1.70

Need log10 of Ki for each of these compounds.
1. COc1ccc(Nc2c3c(nc(N)n4nc(-c5ccco5)nc34)nn2C)cc1 [Compound 39]
2. COc1ccc(NC(=O)Nc2nc3nn(C)c(SC)c3c3nc(-c4ccco4)nn23)cc1 [Compound 46]

Resp:
[2.41, 1.85]

====

- system: human A3 adenosine receptors (Homo sapiens, UniProt P0DMS8)
- Sequence (P0DMS8 whole entry): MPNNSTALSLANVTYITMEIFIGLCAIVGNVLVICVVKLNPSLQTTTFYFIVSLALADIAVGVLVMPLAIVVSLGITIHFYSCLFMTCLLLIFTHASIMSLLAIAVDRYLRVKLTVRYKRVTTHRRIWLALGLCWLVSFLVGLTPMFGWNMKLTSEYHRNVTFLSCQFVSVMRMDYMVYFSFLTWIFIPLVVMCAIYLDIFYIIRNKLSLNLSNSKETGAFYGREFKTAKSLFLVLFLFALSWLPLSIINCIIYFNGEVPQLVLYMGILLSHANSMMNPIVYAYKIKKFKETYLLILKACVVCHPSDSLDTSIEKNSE
- experiment: Displacement of [3H]MRE 3008F20 binding at human A3 adenosine receptors expressed in CHO cells
- Design: expressed in transfected cells; host or cells: CHO cells
- conditions: Table 2, footnote b: [3H]MRE 3008F20, human A3, CHO cells
reportedProperty: Ki

The examples below pair each entry with its known result.
smilesRepresentation | assayResult
Nc1nc2c(cnn2CCc2ccccc2)c2nc(-c3ccc(OCC(=O)Nc4ccc(I)cc4)cc3)nn12 | > 1000 nM
Nc1nc2c(cnn2CCc2ccccc2)c2nc(-c3ccc(OCC(=O)O)cc3)nn12 | > 1000 nM
CCOC(=O)COc1ccc(-c2nc3c4cnn(CCc5ccccc5)c4nc(N)n3n2)cc1 | > 1000 nM

Req: So what does the record say about Ki for CCOc1ccccc1-c1nc2c3cnn(CCc4ccccc4)c3nc(N)n2n1 ?
Resp: 348 nM

====

- system: human A2A adenosine receptors (Homo sapiens)
- Construct: expressed in transfected cells; host or cells: CHO cells
- experiment: Displacement of [3H]SCH58261 binding at human A2A adenosine receptors expressed in CHO cells
- conditions: in words, discussion of Tables 2 and 3
reportedProperty: affinity for A2A adenosine receptor subtype

molecule | assayResult
COc1ccc(CC(=O)Nc2nc3nn(C)c(SC)c3c3nc(-c4ccco4)nn23)cc1 [Compound 47] | maintains A2A affinity
CSc1c2c(nc(N)n3nc(-c4ccco4)nc23)nn1C [Compound 41] | good affinity
Cn1nc2nc(N)n3nc(-c4ccco4)nc3c2c1Nc1ccc(O)cc1 [Compound 52] | useless
CN1CCN(c2c3c(nc(N)n4nc(-c5ccco5)nc34)nn2C)CC1 [Compound 40] | useless
CCNc1c2c(nc(N)n3nc(-c4ccco4)nc23)nn1C [Compound 38] | good affinity

Provide the reported affinity for A2A adenosine receptor subtype of each entry below, same order.
1. COc1ccc(Nc2c3c(nc(N)n4nc(-c5ccco5)nc34)nn2C)cc1 [Compound 39]
2. CSc1c2c(nc(NC(=O)Cc3ccc(CC(C)C)cc3)n3nc(-c4ccco4)nc23)nn1C [Compound 48]

Resp:
useless
maintains A2A affinity
